- Test system: Green Peach Aphid (Myzus persicae)
- experiment description: Insecticidal test for green peach aphid in foliar spray assay on cabbage
- Assay type: in vivo
- test conditions: 72 h, 200 ppm foliar spray on cabbage seedlings, graded after 3 d, corrected % control (Abbott), read-out: Rating against green peach aphid on cabbage (foliar spray)
Can you tell me pest or weed control at 200 ppm for the items I'm about to list?

Illustrative cases are given below, each with its answer.
CC(c1ccc(C(F)(F)F)nc1)S(C)(=O)=NC(=S)NCCN1CCOCC1 (stereo not drawn) | 80 to 100%
CO/N=C(\N)N=S(C)(=O)C(C)c1ccc(C(F)(F)F)nc1 (stereo not drawn) | 80 to 100%
CC(c1ccc(C(F)(F)F)nc1)S(C)(=O)=NC(=O)C(F)F (stereo not drawn) | 80 to 100%
CS(=O)(=N/C(N)=N/O)C(CC1CC1)c1ccc(C(F)(F)F)nc1 (stereo not drawn) | 80 to 100%
CS(=O)(Cc1ccc(C(F)(F)F)nc1)=N/C(N)=N/O (stereo not drawn) | 80 to 100%

Hello, I would appreciate it if you could give pest or weed control at 200 ppm for each entry below.
1. CC(c1ccc(C(F)(F)F)cc1)S(C)(=O)=NC(N)=S (stereo not drawn)
2. CC(c1ccc(C(F)(F)F)nc1)S(C)(=O)=N/C(N)=N/OCC1CO1 (stereo not drawn)
3. CC(c1ccc(C(F)(F)F)nc1)S(C)(=O)=N/C(N)=N/OCc1ccc(Cl)cc1 (stereo not drawn)
4. CC(c1ccc(C(F)(F)F)nc1)S(C)(=O)=NC(=N)N (stereo not drawn)

Marked response:
< 80%
80 to 100%
80 to 100%
< 80%

###

- Tested on: Green Peach Aphid (Myzus persicae)
- experiment description: Insecticidal test for green peach aphid in foliar spray assay on cabbage
- Type: in vivo
- test conditions: 72 h, 200 ppm foliar spray on cabbage seedlings, graded after 3 d, corrected % control (Abbott), read-out: Rating against green peach aphid on cabbage (foliar spray)
property: pest or weed control at 200 ppm

Hello, I would appreciate it if you could give pest or weed control at 200 ppm for each entry below.
1. CS(=O)(=N/C(N)=N/O)C(C/C=C/Cl)c1ccc(Cl)nc1 (stereo not drawn) [Compound 41]
2. CC(c1ccc(C(F)(F)F)nc1)S(C)(=O)=NC(=S)Nc1cccnc1 (stereo not drawn) [Compound 4]
3. CS(=O)(Cc1ccc(Cl)nc1)=N/C(N)=N/O (stereo not drawn) [Compound 39]
4. CC(c1ccc(C(F)(F)F)nc1)S(C)(=O)=NC(=S)Nc1ccc(Cl)cc1 (stereo not drawn) [Compound 20]

Marked response:
< 80%
< 80%
80 to 100%
< 80%

###

- System: Green Peach Aphid (Myzus persicae)
- experiment description: Insecticidal test for green peach aphid in foliar spray assay on cabbage
- Type: in vivo
- test conditions: foliar, 72 h, read-out: Rating against green peach aphid on cabbage (foliar spray)
property: pest or weed control at 200 ppm

Illustrative cases are given below, each with its answer.
CC(c1ccc(C(F)(F)F)cc1)S(C)(=O)=NC(=S)NC(=O)OCC1c2ccccc2-c2ccccc21 (stereo not drawn) | < 80%
Cc1ccc(C(C)S(C)(=O)=NC(=S)NC(=O)OCC2c3ccccc3-c3ccccc32)cn1 (stereo not drawn) | < 80%
CS(=O)(Cc1ccc(C(F)(F)F)nc1)=NC(=S)NC(=O)OCC1c2ccccc2-c2ccccc21 (stereo not drawn) | < 80%

Hello, I would appreciate it if you could give pest or weed control at 200 ppm for each entry below.
1. CS(=O)(Cc1ccc(Cl)nc1)=NC(=S)NC(=O)OCC1c2ccccc2-c2ccccc21 (stereo not drawn)
2. CC(c1ccc(C(F)(F)F)nc1)S(C)(=O)=NC(=S)NC(=O)OCC1c2ccccc2-c2ccccc21 (stereo not drawn)
3. CCOC(=O)NC(=S)N=S(C)(=O)C(C)c1ccc(C(F)(F)F)nc1 (stereo not drawn)

Marked response:
["< 80%", "80 to 100%", "80 to 100%"]
